Assay: Solubility of moxifloxacin HCl in the presence of sodium chloride
Format: physicochemical
Conditions: sodium chloride solution, 5 °C, saline or isotonic, thermodynamic from solid, NaCl 0.9 % (w/v)
Procedure: For a dosage range of from 100 mg to 1000 mg at active compound concentrations of from 0.04% to 0.4% (w/v) of moxifloxacin hydrochloride, it is thus possible to adjust the osmotic pressure to physiological conditions by adding from 0.4% to 0.9% of sodium chloride. […] This ensures that, even on short-term cold storage, there is no precipitation of the active compound as a result of exceeding the saturation solubilities. [table]
Structures can show the parent of a compound that is named as a salt.
parameter: solubility thermodynamic (µg/mL)

compound: COc1c(N2C[C@@H]3CCCN[C@@H]3C2)c(F)cc2c(=O)c(C(=O)O)cn(C3CC3)c12 [moxifloxacin HCl]
parameter: solubility thermodynamic
valueObserved: 1000
